Assay System: E3 ubiquitin-protein ligase Mdm2 (Homo sapiens, UniProt Q00987)
Sequence (Q00987 whole entry): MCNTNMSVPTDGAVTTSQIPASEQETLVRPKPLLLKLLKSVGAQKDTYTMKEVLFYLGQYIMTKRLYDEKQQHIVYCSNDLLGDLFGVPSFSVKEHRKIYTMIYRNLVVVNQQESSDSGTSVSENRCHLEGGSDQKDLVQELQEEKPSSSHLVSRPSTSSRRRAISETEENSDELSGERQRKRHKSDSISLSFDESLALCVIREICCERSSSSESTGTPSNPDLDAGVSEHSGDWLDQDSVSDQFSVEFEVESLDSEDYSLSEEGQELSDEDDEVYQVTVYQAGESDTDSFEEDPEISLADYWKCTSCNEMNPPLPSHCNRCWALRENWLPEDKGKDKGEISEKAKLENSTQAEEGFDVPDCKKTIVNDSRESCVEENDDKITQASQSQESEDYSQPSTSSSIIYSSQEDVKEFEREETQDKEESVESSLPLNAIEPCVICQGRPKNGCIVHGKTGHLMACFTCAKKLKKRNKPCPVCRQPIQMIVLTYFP
Protocol Summary: Inhibition of Mdm2 -p53 protein interaction by ELISA
pIC50: −log10 of the molar value.
// label = 1 if pIC50 is not less than 5, otherwise -1

Cc1ccc(CN2C(=O)c3ccccc3C2(O)c2ccc(Cl)cc2)cc1 (centres undefined)	-1
O=C(c1ccccc1)c1ccc(CN2C(=O)c3ccccc3C2(O)c2ccc(Cl)cc2)cc1 (centres undefined)	-1
CCCN1C(=O)c2ccccc2C1(O)c1ccc(Cl)cc1 (centres undefined)	-1
O=C1c2ccccc2C(O[C@H]2C=C[C@@H](O)C2)(c2ccc(Cl)cc2)N1Cc1ccccc1 (mixture of isomers)	1
Nc1ccc(CCN2C(=O)c3ccccc3C2(O)c2ccc(Cl)cc2)cc1 (centres undefined)	1
O=C1c2ccccc2C(OCC2(CO)CC2)(c2ccc(Cl)cc2)N1Cc1ccncc1 (racemic)	-1
O=C1c2ccccc2C(O[C@H]2CC[C@@H](O)C2)(c2ccc(Cl)cc2)N1Cc1ccc([N+](=O)[O-])cc1 (mixture of isomers)	1
O=C1c2ccccc2C(O)(c2ccc(Cl)cc2)N1CCc1ccc([N+](=O)[O-])cc1 (centres undefined)	1
O=C1c2ccccc2C(O)(c2ccc(Cl)cc2)N1Cc1cccc2ccccc12 (centres undefined)	-1

----------
Assay System: UniProt Q00987
Protocol Summary: Inhibition of Mdm2 -p53 protein interaction by ELISA
pIC50: −log10 of the molar value.
Quantity: pIC50

O=C1c2ccccc2C(O)(c2ccc(Br)cc2)N1Cc1ccc([N+](=O)[O-])cc1 (stereo not given)	5.51
N#Cc1ccc(CN2C(=O)c3ccccc3C2(OCCCCO)c2ccc(Cl)cc2)cc1 (racemic)	5.46
N#Cc1ccc(CN2C(=O)c3ccccc3C2(O)c2ccc(Cl)cc2)cc1 (stereo not given)	5.22
O=C1c2ccccc2C(O[C@H]2CCC[C@H](O)CCC2)(c2ccc(Cl)cc2)N1Cc1ccc([N+](=O)[O-])cc1 (mixture of isomers)	6.42
O=C1c2ccccc2C(O)(c2ccc(Cl)cc2)N1CCc1ccccc1 (stereo not given)	5.14

Every entry's value here was drawn from ChEMBL document CHEMBL1687910.
